tested on: Ribosome; test: Inhibition of mammalian ribosomal activity by coupled transcription/translation assay; type: subcellular
pIC50: recorded values
In plain terms, pIC50 is the concentration in mol/L turned into minus its base-10 logarithm.

CC(=O)NC[C@H]1CN(c2ccc(N3CCOCC3)c(F)c2)C(=O)O1    1.92

The reported pIC50 value, Ribosome, for CC(=O)NC[C@H]1CN(c2ccc(N3CCN(Cc4ccc([N+](=O)[O-])o4)CC3)c(F)c2)C(=O)O1 reads 1.83

---

assay: Inhibition of ribosomal activity in Escherichia coli S30 by coupled transcription/translation assay; format: subcellular, Ribosome
pIC50: recorded values
In plain terms, pIC50 is the concentration in mol/L turned into minus its base-10 logarithm.

The compound CC(=O)NC[C@H]1CN(c2ccc(N3CCOCC3)c(F)c2)C(=O)O1 showed pIC50 equal to 4.00

The compound CC(=O)NC[C@H]1CN(c2ccc(N3CCN(Cc4ccc([N+](=O)[O-])o4)CC3)c(F)c2)C(=O)O1 showed pIC50 equal to 4.77
